Exercise: for every item that follows, state its recorded composite z-score.
Test system: Sonic hedgehog protein (Shh)
assay-explanation: small-molecule binders of Shh protein, primary screen, biochemical, small-molecule microarray, 635/667 nm fluorescence (AID 1151);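 also: Shh protein binding to compounds spotted on small-molecule microarray slides; score combines spot fluorescence intensity with signal-to-noise across triplicate slides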
test-conditions: small-molecule microarray binding, 635 nm fluorescence; higher = more signal
Numbers only.

[
  {
    "compound": "COCCOC(=O)N1C(=O)[C@@]2(c3ccccc31)[C@H](C(N)=O)[C@H]1C(=O)O[C@H](c3ccccc3)[C@H](c3ccccc3)N1[C@@H]2c1ccccc1OCCO",
    "assayed-target": "Sonic hedgehog protein (Shh)",
    "composite z-score": 1.19
  },
  {
    "compound": "CC(C)NC(=O)[C@@]1(C)c2ccccc2C(=O)N(Cc2cc(F)cc(C(F)(F)F)c2)[C@H]1c1ccc(CO)cc1",
    "assayed-target": "Sonic hedgehog protein (Shh)",
    "composite z-score": 0.903
  },
  {
    "compound": "C#CCCCON=C1C[C@@H](O)[C@@H](O)[C@@H]2[C@@H]3C(=O)N(c4cccc(Oc5ccccc5)c4)C(=O)[C@@H]3CC[C@@H]12",
    "assayed-target": "Sonic hedgehog protein (Shh)",
    "composite z-score": 0.277
  }
]

// input: 4 compounds below; output: composite z-score for each
1. CCOC(=O)[C@H](Cc1ccccc1)NC(=O)CCC1CC(OC(=O)NCc2ccc3c(c2)OCO3)CC2(CCCC(COC(=O)NCc3ccccc3)O2)O1 (some centres not stated)
2. CCN1C(=O)[C@H]2[C@H]3[C@H](O)C=CC(=O)[C@@H]3CC[C@H]2C1=O
3. COc1ccccc1CN1C(=O)c2ccccc2[C@@H](C(=O)NCC(F)(F)F)[C@@H]1c1ccc(CO)cc1
4. O=C1C[C@@H](O)[C@@H](O)[C@@H]2[C@@H]3C(=O)N(c4ccc(F)cc4F)C(=O)[C@@H]3CC[C@@H]12

Reply:
0.944
0.62
1.92
0.786
